Reported normalized growth values for a set of compounds
test.protocol: chemical genetic growth profiling, strain panel (AID 1159580);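 note: tested at 20 µM; growth read once vehicle control cultures reached saturation at 30 °C; 1 = growth at the plate median or of vehicle wells; lower values mean less growth of the strain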
test.context: S. cerevisiae deletion strains, growth OD, locus YDR318W, strain mcm21, hits give low values
About 2,000 (36%) of roughly 5,500 compounds were called active. About 18% were inconclusive and are not listed. The list shows a part of the results.
Returns: the value as a bare number; no unit string appended.

Ask | Note down normalized growth recorded for N=c1ccn2c(n1)O[C@@H]1C2O[C@H](CO)[C@H]1O (stereo not given in full)
Reply | 1

Ask | Note down normalized growth recorded for Cc1cccc(C)c1OCC(C)N (stereo not given)
Reply | 0.99

Ask | Note down normalized growth recorded for CN1CCCN=C1COC(=O)C(O)(c1ccccc1)C1CCCCC1 (stereo not given)
Reply | 0.983

Ask | Note down normalized growth recorded for CN(C)c1ccc(C(=C2C=CC(=[N+](C)C)C=C2)c2ccc(N(C)C)cc2)cc1
Reply | 0.487

Ask | Note down normalized growth recorded for CCCCCCCCCCCCCCCC(=O)OC/C=C(C)/C=C/C=C(C)/C=C/C1=C(C)CCCC1(C)C
Reply | 0.999

====

test.protocol: chemical genetic growth profiling, strain panel (AID 1159580)
test.context: S. cerevisiae deletion strains, growth OD, locus YJR066W, strain TOR1
The campaign covered roughly 5,500 compounds. About 2,000 (36%) were called active. Roughly 18% stayed inconclusive and do not appear here. Rule as the data show it: active = normalized growth mostly below about 0.91 (no sharp cut-off); inconclusive = no clear call, values can overlap the other calls; inactive = mostly above about 0.92. Some of the results follow.
A correct response names exactly one class from active, inactive

Solved cases (3 shown):
[
  {
    "molecule": "CC(CCc1ccccc1)NC(C)C(O)c1ccc(O)cc1 (stereo unspecified)",
    "label": "inactive"
  },
  {
    "molecule": "CN(C)c1ccc(C(=C2C=CC(=[N+](C)C)C=C2)c2ccc(N(C)C)cc2)cc1",
    "label": "active"
  },
  {
    "molecule": "Cc1cc(Cl)ccc1NNC(=O)c1snnc1C",
    "label": "inactive"
  }
]

Ask | Entry N=c1ccn2c(n1)O[C@@H]1C2O[C@H](CO)[C@H]1O (stereo partly specified) : call = ?
Reply | inactive

Ask | Entry CC[C@H](/C=C/C(C)C1CCC2C3CCC4=CC(=O)CC[C@]4(C)C3CC[C@]12C)C(C)C (stereo partly specified) : call = ?
Reply | inactive

Ask | Entry CC1=C(/C=C/C(C)=C/C=C/C(C)=C/C=C/C=C(C)/C=C/C=C(C)/C=C/C(=O)[C@]2(C)C[C@@H](O)CC2(C)C)C(C)(C)C[C@H](O)C1 : call = ?
Reply | inactive

Ask | Entry C=C(C)[C@@H]1[C@H]2OC(=O)[C@@H]1[C@]1(O)C[C@H]3O[C@]34C(=O)O[C@H]2[C@]14C : call = ?
Reply | inactive

====

test.protocol: chemical genetic growth profiling, strain panel (AID 1159580);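 note: tested at 20 µM; growth read once vehicle control cultures reached saturation at 30 °C; 1 = growth at the plate median or of vehicle wells; lower values mean less growth of the strain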
test.context: S. cerevisiae deletion strains, growth OD, locus YJL095W, strain BCK1 (second series), hits give low values
The whole screen tested about 5,500 compounds, of which about 2,000 (36%) were called active. Not shown: some 18% with an inconclusive outcome. This is one part of the list.
measurement.kind: normalized growth

A selection of reference data follows.
[
  {
    "molecule": "C=Cc1c2[nH]c(c1C)C=c1[nH]c(c(C)c1C=C)=CC1N=C(C=c3[nH]c(c(C)c3CCC(=O)O)=C2)C(CCC(=O)O)=C1C (stereo not drawn)",
    "measurement.kind": "normalized growth",
    "result": "1.02 (inactive)"
  },
  {
    "molecule": "CCN(CC)CCCC(C)Nc1ccnc2cc(Cl)ccc12 (stereo not drawn)",
    "measurement.kind": "normalized growth",
    "result": "1.03 (inactive)"
  },
  {
    "molecule": "CC(C(=O)O)c1cccc(C(=O)c2ccccc2)c1 (stereo not drawn)",
    "measurement.kind": "normalized growth",
    "result": "0.978 (inactive)"
  },
  {
    "molecule": "COc1cc2c(cc1OC)[C@@H]1C(=O)c3ccc4oc(C(C)C)cc4c3O[C@@H]1CO2",
    "measurement.kind": "normalized growth",
    "result": "1.01 (inactive)"
  },
  {
    "molecule": "CCN(CCO)CCCC(C)Nc1ccnc2cc(Cl)ccc12 (stereo not drawn)",
    "measurement.kind": "normalized growth",
    "result": "0.995 (inactive)"
  },
  {
    "molecule": "CN1CCC(=C2c3ccccc3CC(=O)c3sccc32)CC1",
    "measurement.kind": "normalized growth",
    "result": "0.973 (inactive)"
  },
  {
    "molecule": "Cc1cccc(C)c1OCC(C)N (stereo not drawn)",
    "measurement.kind": "normalized growth",
    "result": "1 (inactive)"
  },
  {
    "molecule": "COc1ccc(OC)c(C(O)C(C)N)c1 (stereo not drawn)",
    "measurement.kind": "normalized growth",
    "result": "0.997 (inactive)"
  }
]

Ask | Note down normalized growth recorded for OCCN1C[C@@H](O)[C@@H](O)C(O)C1CO (stereo partly drawn)
Reply | 1.01 (inactive)

Ask | Note down normalized growth recorded for CCOC(=O)C(=O)C1(C(=O)OCC)Oc2cc(OC)cc(OC)c2C(=O)C1c1ccccc1 (stereo not drawn)
Reply | 0.973 (inactive)

Ask | Note down normalized growth recorded for CCOC(=O)C(Cc1ccc(O)cc1)NC(C)=O (stereo not drawn)
Reply | 1.03 (inactive)

Ask | Note down normalized growth recorded for CN1CCC(=C2c3ccccc3Sc3ccccc32)CC1
Reply | 1.02 (inactive)

Ask | Note down normalized growth recorded for CCN(CC)CCCC(C)Nc1c2ccc(Cl)cc2nc2ccc(OC)cc12 (stereo not drawn)
Reply | 1.03 (inactive)

Ask | Note down normalized growth recorded for COc1ccc2cc([C@H](C)C(=O)O)ccc2c1
Reply | 0.987 (inactive)

Ask | Note down normalized growth recorded for COc1cc(NS(=O)(=O)c2ccc(N)cc2)nc(OC)n1
Reply | 0.963 (inactive)

Ask | Note down normalized growth recorded for CN1CCC(=C2c3ccccc3CCc3sccc32)CC1
Reply | 0.973 (inactive)

Ask | Note down normalized growth recorded for COc1cc2c(cc1OC)[C@@H]1C(=O)c3ccc4c(c3O[C@@H]1CO2)C=CC(C)(C)O4
Reply | 0.988 (inactive)

Ask | Note down normalized growth recorded for CC1=C(C(C)O)C2=NC1C=c1[nH]c(c(C)c1C(C)O)=Cc1[nH]c(c(CCC(=O)O)c1C)C=c1[nH]c(c(C)c1CCC(=O)O)=C2 (stereo not drawn)
Reply | 0.994 (inactive)

====

test.protocol: chemical genetic growth profiling, strain panel (AID 1159580);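 note: tested at 20 µM; growth read once vehicle control cultures reached saturation at 30 °C; 1 = growth at the plate median or of vehicle wells; lower values mean less growth of the strain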
test.context: S. cerevisiae deletion strains, growth OD, locus YDL074C, strain BRE1, hits give low values
Among all 5,500 compounds or so, about 2,000 (36%) were called active. About 18% were inconclusive and are not listed. This is one part of the list.
Output True for records whose normalized growth is lower than 1, False for records at or above 1.

[
  {
    "compound": "NCC1CCC(C(=O)O)CC1 (configuration not stated)",
    "label": "False"
  },
  {
    "compound": "COc1cc(O)c(C(=O)/C=C/c2ccccc2)c(OC)c1",
    "label": "True"
  },
  {
    "compound": "O=C(O)c1cc2ccccc2c(Cc2c(O)c(C(=O)O)cc3ccccc23)c1O",
    "label": "True"
  }
]

Now look at this one.
Ask | hey, is normalized growth for CNCCc1ccccn1 lower than 1 or not?
Reply | False

====

test.protocol: chemical genetic growth profiling, strain panel (AID 1159580);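 note: tested at 20 µM; growth read once vehicle control cultures reached saturation at 30 °C; 1 = growth at the plate median or of vehicle wells; lower values mean less growth of the strain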
test.context: S. cerevisiae deletion strains, growth OD, locus YNL298W, strain CLA4, hits give low values
The whole screen tested about 5,500 compounds, of which about 2,000 (36%) were called active. Roughly 18% stayed inconclusive and do not appear here. This is one part of the list.
measurement.kind: normalized growth
Returns: the value as a bare number; no unit string appended.

A selection of reference data follows.
[
  {
    "molecule": "CC(N)CCCC(C)(C)O (stereo not given)",
    "normalized growth": 0.999
  },
  {
    "molecule": "CC1CC2C3CCC4=CC(=O)C=C[C@]4(C)[C@@]3(F)[C@@H](O)C[C@]2(C)[C@@]1(O)C(=O)CO (stereo not given in full)",
    "normalized growth": 0.966
  }
]

Ask | Note down normalized growth recorded for CCCCNc1cc(C(=O)O)cc(S(N)(=O)=O)c1Oc1ccccc1
Reply | 0.969

Ask | Note down normalized growth recorded for CC(Oc1ccccc1)C(=O)N[C@@H]1C(=O)N2[C@@H]1SC(C)(C)[C@@H]2C(=O)O (stereo not given in full)
Reply | 1.03

Ask | Note down normalized growth recorded for CC(C)CC(NC(=O)C(Cc1ccccc1)NC(=O)CNC(=O)CNC(=O)C(N)Cc1ccc(O)cc1)C(=O)O (stereo not given)
Reply | 0.979

Ask | Note down normalized growth recorded for c1ccc(N=Nc2ccccc2)cc1
Reply | 1

Ask | Note down normalized growth recorded for C[C@H]1OC(n2cc(F)c(=O)[nH]c2=O)C(O)[C@@H]1O (stereo not given in full)
Reply | 0.963

Ask | Note down normalized growth recorded for CC(C(=O)O)c1ccc(-c2ccccc2)c(F)c1 (stereo not given)
Reply | 0.792

Ask | Note down normalized growth recorded for CC(C)(O)[C@@H]1[C@H]2OC(=O)[C@@H]1[C@]1(O)C[C@H]3O[C@]34C(=O)O[C@H]2[C@]14C
Reply | 1.02

Ask | Note down normalized growth recorded for COc1ccc(OC)c(C(O)C(C)N)c1 (stereo not given)
Reply | 1

Ask | Note down normalized growth recorded for CC(C(=O)O)c1cccc(Oc2ccccc2)c1 (stereo not given)
Reply | 0.929

Ask | Note down normalized growth recorded for C=C(C)C1CNC(C(=O)O)C1CC(=O)O (stereo not given)
Reply | 1.02
